Each recorded value in this set is attributed to patent US20260242478A1.

Biological target: T1, 006 PSMA Fab
T1 construct: also called Anti-PSMA Fab
Experiment: clonal phage ELISA on captured anti-PSMA Fab; competitor PSMA antigen
Measured phage binding ELISA signal with PSMA antigen present, listed per entry for reference.
METRIC NAME: phage binding ELISA signal with PSMA antigen present

BINDER: VVRHCVPTWMCTGF [Phage-3532]
RESULT NUMBER: 0.102

BINDER: DMARCIPAWMCTGF [Phage-3523]
RESULT NUMBER: 0.106

BINDER: VVPWCSPAWMCSGF [Phage-3529]
RESULT NUMBER: 0.0752

BINDER: LIALCKPPWMCEWF [Phage-3526]
RESULT NUMBER: 0.213

BINDER: GYVMCEPRWMCEGL [Phage-3528]
RESULT NUMBER: 0.0803

BINDER: EERICKPQWMCSAF [Phage-3530]
RESULT NUMBER: 0.0804

BINDER: SAIRCEPLWMCSGL [Phage-3519]
RESULT NUMBER: 0.0578

BINDER: YPPLCKPEWMCVGL [Phage-3525]
RESULT NUMBER: 0.0714

BINDER: PSISCTPQWMCFGF [Phage-3521]
RESULT NUMBER: 0.0639

BINDER: VSPSCVPPWMCVGF [Phage-3531]
RESULT NUMBER: 0.0791

BINDER: ALLSCVPPWMCLGL [Phage-3522]
RESULT NUMBER: 0.0728

BINDER: EVQYCVPAWMCEGF [Phage-3520]
RESULT NUMBER: 0.117

BINDER: GPKICVPMWMCDGF [Phage-3518]
RESULT NUMBER: 0.116

BINDER: WFRMCEPSWMCEGF [Phage-3527]
RESULT NUMBER: 0.11

BINDER: ELLHCKPMWMCIGL [Phage-3524]
RESULT NUMBER: 0.0864
